assay_text: qHTS of pediatric cancer cell lines to identify multiple opportunities for drug repurposing: Primary screen for OHS-50 cells (AID 1347103); note: nearly all actives have a fitted effect of over 40% in size
test_conditions: OHS-50 osteosarcoma viability, CellTiter-Glo luminescence, 48 h; series mostly up to 57.3 µM
Records with an inconclusive call do not appear. Activity calls are given as the source filed them. Calls come from the whole dose curve; as a rule, active = well fitted cell-killing curve with a large enough effect; inconclusive = small, poorly fitted or top-dose-only effect; inactive = no such curve, though single readings can be large or run the other way.
Answer with one of the outcomes active, inactive

- COc1cc2c(cc1OC)[C@@H]1Cc3ccc(OC)c(OC)c3CN1CC2: inactive
- COc1cc([C@@H]2c3cc4c(cc3[C@@H](O[C@@H]3O[C@@H]5CO[C@@H](C)O[C@@H]5[C@H](O)[C@@H]3O)[C@H]3COC(=O)[C@H]23)OCO4)cc(OC)c1O: active
- CN(C)CCN(C)C(=O)c1ccc(NC(=O)Nc2ccc(-c3nc(N4CCOCC4)c4ccn(CC(F)(F)F)c4n3)cc2)cc1: active
- CC(NCCc1ccc(O)cc1)C(O)c1ccc(O)cc1 (configuration not stated): inactive
- CO[C@H]1/C=C\O[C@@]2(C)Oc3c(C)c(O)c4c(O)c(c(C=NN5CCN(C6CCCC6)CC5)c(O)c4c3C2=O)NC(=O)C(C)=CC=C[C@H](C)[C@H](O)[C@@H](C)[C@@H](O)[C@@H](C)[C@H](OC(C)=O)[C@H]1C: active
- Cc1c(C(=O)Nc2ccc(N3C[C@@H](C)O[C@@H](C)C3)nc2)cccc1-c1ccc(OC(F)(F)F)cc1: active

With those in mind, consider the next compound.
## Input What did the test return for `COc1ccc(C=CC(=O)Nc2ccccc2C(=O)O)cc1OC` ?
## Output inactive

----------
assay_text: Quantitative High-Throughput drug screen in 47 multiple myeloma cell lines against the NCATS MIPE library collection: PE2_PLB cell viability assay (AID 1919869); note: nearly all actives have a fitted effect of over 35% in size
test_conditions: PE2_PLB myeloma cells viability, ATP luminescence, 48 h; series mostly up to 45.8 µM
Excerpt: PI: Beverly A. Mock Ph.D. Laboratory of Cancer Biology and Genetics, Center for Cancer Research, National Cancer Institute, National Institute of Health, Bethesda, Maryland […] 5; Detector; 425V; Luminescence; Viewlux PerkinElmer. […] 1. […] Briefly, the corresponding myeloma cell lines were screened in 1,536-well plates with 500 cells, 5-uL per well for inhibition of cell viability (assessed by measuring ATP levels with CellTiterGlo). […]
Inconclusive results are not listed. The source made the active and inactive calls. The call rests on the fitted dose curve; in most records, active means well fitted cell-killing curve with a large enough effect; inconclusive means small, poorly fitted or top-dose-only effect, or effect the other way; inactive means no such curve, though single readings can be large or run the other way.
Please reply with one of these outcomes: Yes = active, No = inactive

Worked cases, answers included:
- CCC(=O)N1CCN(c2ccc(-n3c(=O)ccc4cnc5ccc(-c6cnc7ccccc7c6)cc5c43)cc2C(F)(F)F)CC1: Yes
- O=C(O)C1=CO[C@@H](O[C@@H]2O[C@H](CO)[C@H](O)[C@H](O)[C@H]2O)[C@@H]2C(CO)=CC[C@H]12: No
- O=C(CCCN1CCN(c2ccc(F)cc2)CC1)NC1c2ccccc2CSc2ccccc21 (stereo not drawn): Yes

## Input Hey, what did the test say about `CC(C)c1onc(-c2c(Cl)cccc2Cl)c1COc1ccc(C=Cc2cccc(C(=O)O)c2)c(Cl)c1` ?
## Output No

## Input // return assay outcome for `CC(C)C[C@H](NC(=O)c1cc2ccccc2s1)C(=O)N1CCN(C(=O)[C@H](CO)NS(=O)(=O)c2ccc(Cl)cc2Cl)CC1`
## Output Yes

## Input I would be grateful if you could indicate the recorded call for `CCCCC[C@H](O)C=C[C@H]1[C@H](O)CC(=O)[C@H]1CC=CCCCC(=O)O` .
## Output Yes

## Input GET /call?item= `NS(=O)(=O)c1cc(Cl)c(Cl)c(S(N)(=O)=O)c1` returns the recorded outcome of this test.
## Output No

## Input Tell me the recorded outcome of this test for `CCOC(=O)[C@@H](N)CCC(=O)N[C@@H](CSCc1ccccc1)C(=O)N[C@@H](C(=O)OCC)c1ccccc1` .
## Output Yes
